# Test system: S. cerevisiae expressing PfHSP40, growth rescue, plate reader
# ASSAY COMMENT: Yeast growth rescue from Plasmodium falciparum HSP40 toxicity, dose response confirmatory, plate reader (AID 540271);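 also: yeast growth read after three days of incubation at 30 °C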
Calls of active or inactive are those of the source. No rule for the calls is given here.
Allowed answers: Yes for active, No for inactive

Examples from the recorded data:
* Cc1ccc(C(C)(C)C)cc1S(=O)(=O)Nc1ncnc2sccc12 | Yes
* Cc1ccc(-c2nc3ccc(Cl)cc3c(=O)n2O)cc1 | Yes
* CC(C)(C)n1nc(-c2ccc(F)cc2)c2c(N)ncnc21 | Yes
* O=c1c(O)c(-c2ccccc2)oc2ccccc12 | Yes
* CCc1ccccc1OCC(=O)Nc1nc(-c2cccnc2)cs1 | Yes

Hey, what did the test say about `O=C(Nc1nnc(-c2cccs2)o1)c1cccc(Oc2ccccc2)c1` ?
Yes

For `CC12CC3(C)CC(C)(C1)CC(NC(=O)N1CCCC1)(C2)C3` , which call appears in the assay record?
Yes

Which outcome did this test record for the compound `NNC(=O)c1ccc2nc(-c3ccc(Br)cc3)cn2c1` ?
Yes

GET /call?item= `O=C(COC(=O)c1ccc([N+](=O)[O-])o1)NC12CC3CC(CC(C3)C1)C2` returns the recorded outcome of this test.
No

Record lookup: outcome of this test for `O=Cc1ccc(O)c2ncccc12` ?
Yes

Hi team, can someone confirm the assay call for `Cc1noc2ncnc(SCc3ccc(C(F)(F)F)cc3)c12` ?
Yes

State the result this test recorded for `Cc1ccccc1Oc1nc(-c2ccccn2)nc2ccccc12` .
Yes

----------
# System: S. cerevisiae expressing PfHSP40, growth rescue, plate reader
# ASSAY COMMENT: Yeast growth rescue from Plasmodium falciparum HSP40 toxicity, dose response confirmatory, plate reader (AID 540271);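 also: yeast growth read after three days of incubation at 30 °C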
Calls of active or inactive are those of the source. No rule for the calls is given here.
METRIC NAME: AC50

- CSC1SCC2C(=O)N(C)C(C(C)C)C(=O)OCC(NC(=O)c3cnc4ccccc4n3)C(=O)NC(C)C(=O)N(C)C1C(=O)N(C)C(C(C)C)C(=O)OCC(NC(=O)c1cnc3ccccc3n1)C(=O)NC(C)C(=O)N2C (stereo unspecified): > 12 µM (inactive)
- CCN(CC)C(=O)CSc1ncnc2sc(-c3ccccc3)cc12: 8.72 µM
- Cc1ccc(CCNc2ncnc(Cl)c2N)cc1: 4.48 µM

Which AC50 value is on record for `C=CCNc1nc(-c2ccccn2)nnc1-c1ccccc1` ?
10.3 µM

I would be grateful if you could share the reported AC50 for `O=C(Nc1ccc(Br)c(C(F)(F)F)c1)c1ccccc1` .
4.78 µM

Quick check: AC50 of CC1CC(C)CC(C)C(O)C(C#N)=CC=CCC(C2CCCC2C(=O)O)OC(=O)CC(O)C(C)C1 (stereo unspecified) ?
5.14 µM

----------
// reported AC50 for each item listed
# Test system: S. cerevisiae expressing PfHSP40, growth rescue, plate reader
# ASSAY COMMENT: Yeast growth rescue from Plasmodium falciparum HSP40 toxicity, dose response confirmatory, plate reader (AID 540271);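 also: yeast growth read after three days of incubation at 30 °C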

# example entries with known answers
* O=[N+]([O-])c1ccc(Sc2cccc[n+]2[O-])c2nonc12 | 2.43 µM
* CCCCCCCn1c(=O)c(C(=O)OC)c(N)c2ccccc21 | 4.64 µM

Query: AC50; subject: `Cc1ccc(C)c(NS(=O)(=O)c2cc(C(=O)N3CCc4ccccc4C3)ccc2Cl)c1`
6.77 µM

Suppose we examine the compound `CC(C)(C)c1ccc(Oc2ccc(N)cc2)cc1` ; what AC50 value has been reported?
7.32 µM

Given the compound `O=S(=O)(c1ccc(Cl)cc1)N1CCC2(CC1)OCCN2S(=O)(=O)c1cccs1` , what is its reported AC50?
4.77 µM
